Assay protocol: Half-life in liver homogenate (HPLC)
Format: in vitro ADME
Condition set: 37° C., sample 0.4 mg/mL or 0.8 mg/mL, read-out: t1/2 in liver homogenate (converted)
Endpoint name: half-life (h)

# Substance, Reading unit, Assay value
data = [
    ("Ac-SDAAVDTCSEITTKDLKEKKEVVEEAEN-OH [BMJBT002]", "h", 2.1),
    ("Ac-SDAAVDTSSEITTKDLKEKKEVVCEAEN-OH [BMJBT007]", "h", 0.5),
    ("Ac-SDAAVDTSSECTTKDLKEKKEVVEEAEN-OH [BMJBT003]", "h", 2.8),
    ("Ac-SDAAVDTSSEITTKDLKEKKEVVEEAENC-NH2 [BMJBT009]", "h", 0.4),
    ("Ac-SDAAVDTSSEITTKDLKEKKCVVEEAEN-OH [BMJBT006]", "h", 2.6),
]

* * *

Assay protocol: Plasma concentration / pharmacokinetics in mouse (competitive ELISA)
Assay type: in vivo
Condition set: serum, ip, 300 ug/animal, 300 μg per mouse, injected peritoneally, parameters in 24 h, n = 3, read-out: Cmax
Reported Cmax values follow for various substances

# Substance, Cmax / ng/mL
data = [
    ("Ac-SDAAVDTSSEITTKDLKEKKCVVEEAEN-OH [BMJBT006]", 11500),
    ("Ac-SDAAVDTSSEITTKDLCEKKEVVEEAEN-OH [BMJBT005]", 3650),
    ("Ac-SDAAVDTSSEITTKDLKEKKEVVCEAEN-OH [BMJBT007]", 5990),
    ("Ac-CSDAAVDTSSEITTKDLKEKKEVVEEAEN-OH [BMJBT008]", 430),
    ("Ac-SDAAVDTSSEITTKDCKEKKEVVEEAEN-OH [BMJBT004]", 4940),
    ("Ac-SDAAVDTSSECTTKDLKEKKEVVEEAEN-OH [BMJBT003]", 5650),
    ("Ac-SDAACDTSSEITTKDLKEKKEVVEEAEN-OH [BMJBT001]", 448),
    ("Ac-SDAAVDTCSEITTKDLKEKKEVVEEAEN-OH [BMJBT002]", 1860),
    ("Ac-SDAAVDTSSEITTKDLKEKKEVVEEAENC-NH2 [BMJBT009]", 443),
    ("Ac-SDAAVDTSSEITTKDLKEKKEVVEEAEN-OH [Tα1, reference compound]", 10100),
]

* * *

System: spleen cell
Assay protocol: Interferon-γ production of spleen cells stimulated by Con A (double antibody sandwich ELISA)
Format: cell-based
Condition set: Table 1-1; sample 100 μg/mL; versus Con A alone
Where no end group is shown, it is not given here.
Endpoint name: Enhancement percentage (%)

# Substance, Assay value
measured = [
    ("Ac-SDAAVDTSSEITTKDLKEKKEVVEEAENC-NH2 [BMJBT009]", "−11.0"),
    ("Ac-[Cys^16(mPEG5000-MAL)]Tα1 (Ac-SDAAVDTSSEITTKDC(mPEG5000‑maleimide)KEKKEVVEEAEN; UniProt P06454 2-29, looked up, variant L16C) [BMJB016]", "−39.4"),
    ("Ac-[Cys^17(mPEG5000-MAL)]Tα1 (Ac-SDAAVDTSSEITTKDLC(mPEG5000‑maleimide)EKKEVVEEAEN; UniProt P06454 2-29, looked up, variant K17C) [BMJB017]", "−36.9"),
]

* * *

Tested on: T lymphocyte (spleen cell)
Assay protocol: T lymphocyte proliferation stimulated by Con A (3H-TdR incorporation)
Type: cell-based, mouse
Condition set: Table 2-2; sample 50 μg/mL; Con A 0.5 μg/mL; 72 hours; n = 4
Text: Sacrifice mouse by draining artery blood, remove spleen in sterile condition, and make it to spleen cell suspension. After red blood cell lysis, wash for 3 times, and stain with Trypan Blue to count the living cells. The amount of living cells should be more than 95%. […] Put the dried filter membrane into 1450-423 microBeta sample bag, add scintillation liquid, and measure radioactivity (cpm) in Perkin Elmer MicroBeta Trilux 1450 Scintillation Counter.
Where no end group is shown, it is not given here.
Reported 3H-TdR incorporation (cpm, x ± SD) values follow for various substances

# Substance, 3H-TdR incorporation (cpm, x ± SD) (cpm)
records = [
    ("Ac-SDAAVDTCSEITTKDLKEKKEVVEEAEN-OH [BMJBT002]", 19611),
    ("Ac-SDAAVDTSSEITTKDLKEKKEVVEEAEN-OH [Tα1, reference compound]", 17007),
    ("Ac-SDAACDTSSEITTKDLKEKKEVVEEAEN-OH [BMJBT001]", 19972),
    ("Ac-SDAAVDTSSECTTKDLKEKKEVVEEAEN-OH [BMJBT003]", 20465),
    ("BMJB012: PEG modification of Tα1, listed after BMJBT001 in Tables 1-2 and 2-2 (SDAAVDTSSEITTKDLKEKKEVVEEAEN; not fully specified; ends and bridges not checked; also: PEG conjugate, site not given here; UniProt P06454 2-29, looked up)", 24066),
]

* * *

Reported Tmax values follow for various substances
Assay protocol: Plasma concentration / pharmacokinetics in mouse (competitive ELISA)
Type: in vivo
Condition set: 300 μg per mouse, injected peritoneally, parameters in 24 h, n = 3
Where no end group is shown, it is not given here.
Endpoint name: Tmax (h)

# Substance, Assay value
rows = [
    ("BMJB015: PEG modification of Tα1, listed after BMJBT004 in Table 1-2 (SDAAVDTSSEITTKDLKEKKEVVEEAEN; ends and bridges not checked; also: PEG conjugate, site not given here; UniProt P06454 2-29, looked up)", 3.000),
    ("Ac-[Cys^17(mPEG5000-MAL)]Tα1 (Ac-SDAAVDTSSEITTKDLC(mPEG5000‑maleimide)EKKEVVEEAEN; UniProt P06454 2-29, looked up, variant K17C) [BMJB017]", 1.000),
    ("BMJB020: PEG modification of Tα1 (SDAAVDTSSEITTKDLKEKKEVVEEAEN; ends and bridges not checked; also: PEG conjugate, site not given here; UniProt P06454 2-29, looked up)", 12.000),
    ("Ac-[Cys^16(mPEG5000-MAL)]Tα1 (Ac-SDAAVDTSSEITTKDC(mPEG5000‑maleimide)KEKKEVVEEAEN; UniProt P06454 2-29, looked up, variant L16C) [BMJB016]", 6.000),
    ("BMJB012: PEG modification of Tα1, listed after BMJBT001 in Tables 1-2 and 2-2 (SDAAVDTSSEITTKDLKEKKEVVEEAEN; not fully specified; ends and bridges not checked; also: PEG conjugate, site not given here; UniProt P06454 2-29, looked up)", 12.000),
]
